# Tested on: KO-52 cells
# assay_overview: Proliferation assay, spheroid-like growth, KO-52 (MLL wildtype control cell line)
# Assay type: cell-based, human
# study_conditions: Homo sapiens, 192 h, KO-52 control cells, 8 days, confluence as measure of spheroid size; read-out: spheroid assay_OneTime KO-52 IC50
So I've got a bunch of compounds here, and I need their pIC50 values.
One number for each entry, as −log10 of the molar value.

Sample answers from the record:
compound: CC(C)[C@@H]([C@H]1C[C@@H](N2CC[C@@H](F)C2)C1)N1CC2(CCN(c3ncnnc3Oc3ccc(F)cc3-c3nnccc3C3CC3)C2)C1 (single isomer, unassigned)
pIC50: 5.89
//
compound: CC(C)[C@H]([C@H]1C[C@@H](NC(=O)C2(F)CC2)C1)N1CC2(CCN(c3ncnnc3Oc3ccc(F)cc3-c3cncnc3C3CC3)C2)C1 (single isomer, unassigned)
pIC50: 5.60
//
compound: CC(C)[C@H](C1CCN(C[C@H]2C[C@@H](O)C2)CC1)N1CC2(CCN(c3ncnnc3Oc3ccc(F)cc3-c3cncnc3C3CC3)C2)C1 (single isomer, unassigned)
pIC50: 5.01
//
compound: CC(=O)N[C@H]1C[C@@H]([C@@H](C(C)C)N2CC3(CCN(c4ncnnc4Oc4ccc(F)cc4-c4cncnc4C4CC4)C3)C2)C1 (single isomer, unassigned)
pIC50: 5.15
//
compound: CC(C)[C@@H]([C@H]1C[C@@H](N2CCN(C(=O)N(C)C)CC2)C1)N1CC2(CCN(c3ncnnc3Oc3ccc(F)cc3-c3cccnc3C3CC3)C2)C1 (single isomer, unassigned)
pIC50: 6.11

Your task in this section: give pIC50 for each listed record.
1. CC(C)[C@@H]([C@H]1C[C@@H](N(C)C)C1)N1CC2(CCN(c3ncnnc3Oc3ccc(F)cc3-c3cccnc3C3CC3)C2)C1 (single isomer, unassigned)
2. CC(=O)N[C@H]1C[C@@H]([C@@H](C(C)C)N2CC3(CCN(c4ncnnc4Oc4ccc(F)cc4-c4cnccc4C4CC4)C3)C2)C1 (single isomer, unassigned)

1: 6.27; 2: 5.90

###

# Tested on: KO-52 cells
# assay_overview: Proliferation assay, spheroid-like growth, KO-52 (MLL wildtype control cell line)
# Assay type: cell-based, human
# study_conditions: Homo sapiens, 192 h, KO-52 control cells, 8 days, confluence as measure of spheroid size; read-out: spheroid assay_OneTime KO-52 IC50
measured_quantity: IC50 (µM)
Give bare numbers, in µM.

molecule: CC(=O)N[C@H]1C[C@@H](C(C(C)C)N2CC3(CCN(c4ncnnc4Oc4ccc(F)cc4-c4cncnc4C4CC4)C3)C2)C1 (some centres unmarked)
IC50 [µM]: 9.04

Consider the additional molecule presented here.
Quote IC50 reported for CC(C)C([C@H]1C[C@@H](N2CCC(S(C)(=O)=O)CC2)C1)N1CC2(CCN(c3ncnnc3Oc3ccc(F)cc3-c3cncnc3C3CC3)C2)C1 (some centres unmarked) please.
8.1

###

For each of the compounds below, state its IC50.
# experimental_target: menin/MLL (terbium chelate-labeled menin, FITC-MBM1 peptide) (Homo sapiens, UniProt O00255, T541A)
# Construct: Menin (a.a 1-610-6xhis tag)
# Sequence (O00255 with tags, fused parts or gaps T541A): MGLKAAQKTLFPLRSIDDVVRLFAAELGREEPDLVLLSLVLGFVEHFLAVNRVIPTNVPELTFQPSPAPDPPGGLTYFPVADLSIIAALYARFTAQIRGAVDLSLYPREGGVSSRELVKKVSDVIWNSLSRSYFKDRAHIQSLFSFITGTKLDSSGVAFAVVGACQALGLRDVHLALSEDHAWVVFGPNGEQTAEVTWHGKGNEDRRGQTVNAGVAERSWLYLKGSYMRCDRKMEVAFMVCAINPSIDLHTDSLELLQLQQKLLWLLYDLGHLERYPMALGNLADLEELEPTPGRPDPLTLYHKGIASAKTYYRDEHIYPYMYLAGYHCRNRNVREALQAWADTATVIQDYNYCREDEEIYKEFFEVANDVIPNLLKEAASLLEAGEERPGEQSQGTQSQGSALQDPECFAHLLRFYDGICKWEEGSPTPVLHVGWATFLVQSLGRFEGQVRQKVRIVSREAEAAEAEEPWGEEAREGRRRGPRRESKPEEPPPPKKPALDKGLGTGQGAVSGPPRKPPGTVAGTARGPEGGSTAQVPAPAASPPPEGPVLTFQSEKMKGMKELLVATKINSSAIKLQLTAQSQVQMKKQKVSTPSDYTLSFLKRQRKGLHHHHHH
# assay_overview: Menin/MLL homogenous time-resolved fluorescence (HTRF) assay
# study_conditions: 30 min incubation
Answer with the number, then the unit.

compound: COC1CN([C@H]2C[C@@H]([C@H](C(C)C)N3CC4(CCN(c5ncnnc5Oc5ccc(F)cc5-c5nnccc5C5CC5)C4)C3)C2)C1 (single isomer, unassigned) [Compound 260]
IC50: 0.1 nM
--
compound: CC(=O)N1CC2(C1)CN([C@H]1C[C@H]([C@H](C(C)C)N3CC4(CCN(c5ncnnc5Oc5ccc(F)cc5-c5cnc(C)cc5C5CC5)C4)C3)C1)C2 (single isomer, unassigned) [Compound 372]
IC50: 0.2 nM
--
compound: CC(C)[C@H]([C@H]1C[C@@H](N2CC3(CCOC3)C2)C1)N1CC2(CCN(c3ncnnc3Oc3ccc(F)cc3-c3cncnc3C3CC3)C2)C1 (single isomer, unassigned) [Compound 247]
IC50: 0.1 nM
--
compound: CC(C)[C@H]([C@H]1C[C@@H](N2CCC3(CCO3)CC2)C1)N1CC2(CCN(c3ncnnc3Oc3ccc(F)cc3-c3cnncc3C3CC3)C2)C1 (single isomer, unassigned) [Compound 280a]
IC50: 5 nM

Please turn your attention to the following entry.
Query IC50 for CC(C)[C@@H]([C@H]1C[C@@H](N2CC[C@@H](S(C)(=O)=O)C2)C1)N1CC2(CCN(c3ncnnc3Oc3ccc(F)cc3-c3ncccc3C3CC3)C2)C1 (single isomer, unassigned) [Compound 287]
70.3 nM

###

# System: MOLM14 cells
# assay_overview: Proliferation assay, spheroid-like growth, MOLM14 (MLL-AF9 rearranged)
# Format: cell-based, human
# study_conditions: Homo sapiens, MOLM-14, 192 h, 8 days, confluence as measure of spheroid size, read-out: spheroid assay_OneTime MOLM14 IC50
Would you mind telling me the reported IC50 of each entry?
Answers are plain numbers, in nM.

// each molecule listed below needs its IC50
1. CC(C)[C@H]([C@H]1C[C@@H](N2C[C@@H](O)C3(CC3)C2)C1)N1CC2(CCN(c3ncnnc3Oc3ccc(F)cc3-c3cncnc3C3CC3)C2)C1 (single isomer, unassigned) [Compound 46]
2. CC(C)[C@H](C1CCN(C[C@H]2C[C@H](O)C2)CC1)N1CC2(CCN(c3ncnnc3Oc3ccc(F)cc3-c3cncnc3C3CC3)C2)C1 (single isomer, unassigned) [Compound 358]
3. CC(=O)N[C@H]1C[C@@H]([C@@H](C(C)C)N2CC3(CCN(c4ncnnc4Oc4ccc(F)cc4-c4cnc(C#N)nc4C4CC4)C3)C2)C1 (single isomer, unassigned) [Compound 343]

[2, 23, 15]

###

# Test system: KO-52 cells
# assay_overview: Proliferation assay, spheroid-like growth, KO-52 (MLL wildtype control cell line)
# Assay type: cell-based, human
# study_conditions: Homo sapiens, 192 h, KO-52 control cells, 8 days, confluence as measure of spheroid size; read-out: spheroid assay_OneTime KO-52 IC50
Field: IC50. Provide a value for each of the molecules that follow.
Note: state the figure and append the unit.

Record excerpt, results attached:
molecule: CC(C)[C@H]([C@H]1C[C@@H](N2CCOCC2)C1)N1CC2(CCN(c3ncnnc3Oc3ccc(F)cc3-c3cncnc3C3CC3)C2)C1 (single isomer, unassigned) [Compound 208]
experimental_target: KO-52 cells
measured_quantity: IC50
result: 9.13 µM
--
molecule: CC(C)C(C1CC2(CCN2CC2COC2)C1)N1CC2(CCN(c3ncnnc3Oc3ccc(F)cc3-c3cncnc3C3CC3)C2)C1 (stereo not shown) [Compound 156]
experimental_target: KO-52 cells
measured_quantity: IC50
result: 7.96 µM
--
molecule: CC(C)[C@H](C1CCN(CC2COC2)CC1)N1CC2(CCN(c3ncnnc3Oc3ccc(F)cc3-c3cncnc3C3CC3)C2)C1 (single isomer, unassigned) [Compound 5]
experimental_target: KO-52 cells
measured_quantity: IC50
result: 9.31 µM
--
molecule: CC(C)[C@@H]([C@H]1C[C@@H](N2CCC3(CCO3)CC2)C1)N1CC2(CCN(c3ncnnc3Oc3ccc(F)cc3-c3nnccc3C3CC3)C2)C1 (single isomer, unassigned) [Compound 251]
experimental_target: KO-52 cells
measured_quantity: IC50
result: 1.24 µM

List IC50 for every entry below, keeping the order given.
1. CC(C)[C@H]([C@H]1C[C@@H](N2CCC3(C2)CS(=O)(=O)C3)C1)N1CC2(CCN(c3ncnnc3Oc3ccc(F)cc3-c3cncnc3C3CC3)C2)C1 (single isomer, unassigned) [Compound 205]
2. CC(C)C([C@H]1C[C@H](N2CC3(COC3)C2)C1)N1CC2(CCN(c3ncnnc3Oc3ccc(F)cc3-c3cncnc3C3CC3)C2)C1 (single isomer, unassigned) [Compound 21]

1. 8.47 µM
2. 4.61 µM

Parameter requested: IC50. Apply to each item below.
1. CC(C)[C@@H]([C@H]1C[C@H](N(C)C)C1)N1CC2(CCN(c3ncnnc3Oc3ccc(F)cc3-c3nnccc3C3CC3)C2)C1 (single isomer, unassigned) [Compound 261b]
2. CC(=O)N[C@H]1C[C@@H]([C@@H](C(C)C)N2CC3(CCN(c4ncnnc4Oc4ccc(F)cc4-c4cnc(C#N)nc4C4CC4)C3)C2)C1 (single isomer, unassigned) [Compound 343]
3. CC(C)[C@H]([C@H]1C[C@H](N2CC[C@@H](C(C)(C)O)C2)C1)N1CC2(CCN(c3ncnnc3Oc3ccc(F)cc3-c3cncnc3C3CC3)C2)C1 (single isomer, unassigned) [Compound 71]
4. CC(C)[C@H]([C@H]1C[C@@H](N2CC[C@@H](O)C23CC3)C1)N1CC2(CCN(c3ncnnc3Oc3ccc(F)cc3-c3cncnc3C3CC3)C2)C1 (single isomer, unassigned) [Compound 40]

1. 3.07 µM
2. 1.14 µM
3. 9.73 µM
4. 0.5 µM

Data provenance: patent US20240417405A1
